All values here come from PubChem BioAssay AID1835.

- Tested Target: Voltage-gated inwardly rectifying potassium channel KCNH2 (Homo sapiens)
- Procedure Summary: hERG protection against dofetilide inhibition, confirmation, cell-based, thallium flux, duplicate retest, dofetilide IC70 (AID 1835)
- Particulars: hERG cell line, FluxOR thallium flux, dofetilide-blocked; at 10 µM
About 750 (31%) of roughly 2,400 compounds were called active.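 Rule for the calls: active = median signal gain over dofetilide-blocked control wells reaching their mean plus 3 SD, so readout 1 at least 0; inactive = the rest.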 The list shows a part of the results.
Outcomes: active, inactive

1. O=C(N/N=C/c1cc(Cl)ccc1O)c1ccccc1Br ... inactive
2. CC(C)[C@H](NC(=O)c1ccco1)C(=O)OCC(=O)Nc1cccc(F)c1 ... inactive
3. Cc1cc(C)cc(OCc2nnc(SCC(=O)Nc3ccccc3)o2)c1 ... inactive
4. Oc1c(Br)cc(Cl)cc1C=Nc1ccccc1Br ... active
5. Oc1c(Cl)cc(Cl)cc1/C=N/c1ncn[nH]1 ... active
6. O=C(CS(=O)(=O)Cc1ccccc1)Nc1ccc(Cl)cn1 ... inactive
7. COc1ccc(CCNC(=O)CC(NS(=O)(=O)c2ccc(NC(C)=O)cc2)C(C)C)cc1OC (stereo not drawn) ... inactive
8. O=C(c1c(O)c2ccccc2oc1=O)C1CCCCC1 ... inactive
9. O=C(Nc1cccc(N=Cc2cc(Cl)cc(Br)c2O)c1)c1ccco1 ... active
10. O=c1c2[nH]c3ccccc3c2nc2n1CCCS2 ... active
11. CC(C)CN(C(=O)COC(=O)CNC(=O)c1ccccc1F)c1c(N)n(Cc2ccccc2)c(=O)[nH]c1=O ... inactive
12. O=c1oc2ccccc2c(Cl)c1CN1CCCCC1 ... active
13. O=c1c(Cc2ccccc2)c(O)nc2n1CCCS2 ... inactive
14. O=C(NNC(=S)Nc1ccccc1)c1cccc(S(=O)(=O)N2CCOCC2)c1 ... inactive
15. O=C(NC(=S)Nc1cccc([N+](=O)[O-])c1)c1ccco1 ... inactive
16. Cc1ccc2c(Cl)cc(Cl)c(OCC(=O)NC3CCS(=O)(=O)C3)c2n1 (stereo not drawn) ... inactive
17. O=S(=O)(c1ccc(F)cc1)N1CCN(c2ccc(F)cc2)CC1 ... inactive
18. Oc1c(Cl)cc(CN2CCCCC2)c2cccnc12 ... inactive
19. CCOC(=O)c1sc(NN=C(C(=O)OC)C(=O)OC)c(C(=O)OCC)c1C ... active
20. Oc1c(Cl)cc(Cl)cc1/C=N/c1nccs1 ... inactive
21. COCCN(C(=O)CSc1nnc(C)n1Cc1ccccc1)c1c(N)n(CC(C)C)c(=O)[nH]c1=O ... active
22. CCOC(=O)c1nnn(CC(=O)Nc2cccc(F)c2)c1C(=O)OCC ... inactive
23. O=C(Nc1ccccc1C(=O)O)c1cccc(NC(=O)c2ccco2)c1 ... inactive
